Molecular target: T1, cynomolgus αVβ6 on cells (cynomolgus)
T1 construct: whole, on cells; also called macaque αVβ6; Mac AVB6
Assay: FACS, supernatant, HEK-293 cells transfected with cynomolgus αV and β6
PROPERTY: Mac AVB6 GeoMean
Number only, no unit.

Worked examples, 4 binders total:
{"columns": ["BINDER", "Mac AVB6 GeoMean"],
 "data": [
  ["sc 254 (antibody, V domains shown, Fully human XenoMouse mAb) VH: QVQLQESGPGLVKPSQTLSLTCTVSGGSISSGGYYWSWIRQHPGKGLEWIGYIYYSGSTYYNPSLKSRVTISVDTSKNQFSLKLSSVTAADTAMYYCARYRGPAAGRGDFYYFGMDVWGQGTTVTVSS VL: DIVMTQTPLSLSVTPGQPASIFCKSSQSLLNSDGKTYLCWYLQKPGQPPQLLIYEVSNRFSGVPDRFSGSGSGTDFTLKISRVEAEDVGVYYCMQGIQLPWAFFGQGTKVEIK", 78.5],
  ["sc 298 (antibody, V domains shown, Fully human XenoMouse mAb) VH: QVQLVESGGGVVQPGRSLRLSCAASGFTFSSYGMHWVRQAPGKGLEWVAVIWYGGSNKYYADSVKGRFTISRDNSKNTLYLQMNSLRAEDTAVYYCARDLAARRGDYYYYGMDVWGQGTTVTVSS VL: SSELTQDPVVSVALGQTVRITCQGDSLRSYYLSWYQQKPGQAPVLVIYGKNNRPSGIPDRFSGSNSGNTASLTITGAQAEDEADYYCNSRDSSGNHLFGGGTKLTVL", 63.1],
  ["sc 277 (antibody, V domains shown, Fully human XenoMouse mAb) VH: EVQLVQSGAEVKKPGESLKISCKGSGYSFPSYWIGWVRQMPGKGLEWMGIIYPGDSDTRYSPSFQGQVTISADKSISTAYLQWSSLKASDTAMYYCARHPMEDGMDVWGQGTTVTVSS VL: SYELTQPPSVSVSPGQTARITCSGDALPKKYAFWYQQKSGQAPVLVIYDDNKRPSGIPERFSGSSSGTMATLTITGAQVEDEADYYCYSTDSSGHHVFGGGTKLTVL", 33.4],
  ["sc 97 (antibody, V domains shown, Fully human XenoMouse mAb; also called sc 097) VH: EVQLVQSGAEVKKPGESLKISCKGSGYSFTSYWIGWVRQMPGKGLEWMGIIYPGDSDTRYSPSFQGQVILSADKSISTAYLQWSSLKASDTAMYYCARHDESSGYYYVFDIWGQGTMVTVSS VL: SYELTQPPSVSVSPGQTARITCSGDALPKKYAYWYQQKSGQAPVLVIYEDIKRPSGIPERFSGSSSGTMATLTISGAQVEDEADYYCYSTDSSGNHWVFFGGGTKLTVL", 37]
]}

Consider the additional binder presented here.
Enquiry: Identify measured Mac AVB6 GeoMean associated with sc 133 (antibody, V domains shown, Fully human XenoMouse mAb) VH: QVQLVQSGAEVKKPGASVKVSCKASGYTFTGYYMHWVRQAPGQGLEWMGWINPKSGDTNYAQKFQGRVTLTRDTSTSTAYMELSRLRSDDTAVYYCARRLDVWGQGTTVTVSS VL: QSVLTQPPSVSAAPGQKVTISCSGSSSNIGNNYVSWYQQLPGTAPKLLIYDNNKRPSGIPDRFSGSKSGTSATLGITGLQTGDEADYYCGTWNSSLSAGYVFGTGTKVTV
Return: 35.2
